MEASUREMENT_TARGET: Human neutrophil elastase (Homo sapiens, UniProt P08246)
Construct: purchased Elastin Products Company, Inc. (EPC, Owensville, USA) SE563
Sequence (P08246 30-267): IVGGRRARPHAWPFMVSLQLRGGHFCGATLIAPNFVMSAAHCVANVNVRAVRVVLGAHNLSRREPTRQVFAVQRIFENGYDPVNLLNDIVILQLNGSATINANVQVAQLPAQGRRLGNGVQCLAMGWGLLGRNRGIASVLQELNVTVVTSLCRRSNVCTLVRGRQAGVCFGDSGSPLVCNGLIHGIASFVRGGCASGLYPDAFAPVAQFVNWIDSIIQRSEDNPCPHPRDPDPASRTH
METHOD_NOTES: HNE inhibitory activity in vitro (fluorescence-quenched substrate)
Assay type: biochemical
RUN_CONDITIONS: Table 11; read-out: human neutrophile elastase IC 50
Where a SMILES comes first, the peptide text is derived from it. Bridges are numbered along the chain shown (N, C = ends). [ ]: non-standard residue; d: D form. The star is where a group is joined. Isovaleryl = CC(C)CC(=O)*
REPORTED_ENDPOINT: IC50
Please state the value followed by its unit.

Look at each molecule and report its IC50.
1. CCCOC1CCC2NC(=O)C(CC(C)C)NC(=O)C(NC(=O)C(CCC(N)=O)NC(=O)C(C)C)C(C)OC(=O)C(C(C)CC)NC(=O)C(Cc3ccc(OCC=CC(F)(F)F)cc3)N(C)C(=O)C(C(C)CC)N1C2=O (centres unmarked)
2. CCCCCCOC(=O)Oc1ccc(CC2C(=O)NC(C(C)CC)C(=O)OC(C)C(NC(=O)C(CCC(N)=O)NC(=O)C(C)C)C(=O)NC(CC(C)C)C(=O)NC3CCC(O)N(C3=O)C(C(C)CC)C(=O)N2C)cc1 (centres unmarked)

[reply]
["3.5 nM", "4.5 nM"]

Look at each molecule and report its IC50.
1. CCCCCCCCOC(=O)Oc1ccc(C[C@H]2C(=O)N[C@@H](C(C)CC)C(=O)O[C@H](C)[C@H](NC(=O)[C@H](CCC(N)=O)NC(=O)C(C)C)C(=O)N[C@@H](CC(C)C)C(=O)NC3CCCN(C3=O)[C@@H](C(C)CC)C(=O)N2C)cc1 (some centres unmarked)
2. CCC(C)[C@@H]1NC(=O)[C@H](Cc2ccc(OCC(=O)NCCOCCOCC(=O)OC(C)(C)C)cc2)N(C)C(=O)[C@H](C(C)CC)N2CCCC(NC(=O)[C@H](CC(C)C)NC(=O)[C@@H](NC(=O)[C@H](CCC(N)=O)NC(=O)C(C)C)[C@@H](C)OC1=O)C2=O (some centres unmarked)
3. CC(C)CC(=O)N[C@@H](CCC(N)=O)C(=O)N[C@@H]1C(=O)N[C@@H](CC(C)C)C(=O)N2CCC[C@@H]2C(=O)N[C@@H](Cc2ccccc2)C(=O)N[C@@H](Cc2ccc(O)cc2)C(=O)N[C@@H](C(C)C)C(=O)O[C@@H]1C [formula X] (Isovaleryl-QTL[dP]FYV; ester 2-C)
4. CCCOC1CCC2NC(=O)C(CC(C)C)NC(=O)C(NC(=O)C(CCC(N)=O)NC(=O)C(C)C)C(C)OC(=O)C(C(C)CC)NC(=O)C(Cc3ccc(OCC=Cc4ccccc4)cc3)N(C)C(=O)C(C(C)CC)N1C2=O (centres unmarked)
5. CCC=CCOc1ccc(CC2C(=O)NC(C(C)CC)C(=O)OC(C)C(NC(=O)C(CCC(N)=O)NC(=O)C(C)C)C(=O)NC(CC(C)C)C(=O)NC3CCC(OCCC)N(C3=O)C(C(C)CC)C(=O)N2C)cc1 (centres unmarked)
6. CCOC(=O)Oc1ccc(C[C@H]2C(=O)N[C@@H](C(C)CC)C(=O)O[C@H](C)[C@H](NC(=O)[C@H](CCC(N)=O)NC(=O)C(C)C)C(=O)N[C@@H](CC(C)C)C(=O)NC3CCCN(C3=O)[C@@H](C(C)CC)C(=O)N2C)cc1 (some centres unmarked)

[reply]
["300 nM", "9 nM", "200 nM", "30 nM", "3 nM", "25 nM"]
